// provenance: paper PMC4264199

- TARGET: dipeptidyl-peptidase IV (DPP-IV) (Homo sapiens)
- Construct: purchased Creative BioMart (Shirley, NY, USA); host or cells: HEK293 human cells
- METHOD NOTES: DPP-IV inhibition assay on SPOT-synthesized peptides (cleaved from cellulose membrane)
- Type: biochemical
- SETUP CONDITIONS: peptides cleaved from cellulose membrane, concentration not known (semi-quantitative); averages of four determinations from two experiments
Each record here notes measured Percent inhibition of DPP-IV activity, SPOT-synthesized deca-peptides.
MEASUREMENT TYPE: Percent inhibition of DPP-IV activity, SPOT-synthesized deca-peptides

INSERT INTO measurements (substance, value) VALUES
  ('I9: α-lactalbumin-derived deca-peptide, residues 97–106 (Table S1) (DKVGINYWLA; UniProt P00711 116-125, looked up, fragment)', '22%'),
  ('G8: α-lactalbumin-derived deca-peptide, residues 74–83 (Table S1) (NISCDKFLDD; UniProt P00711 93-102, looked up, fragment)', '19%'),
  ('G3: α-lactalbumin-derived deca-peptide, residues 69–78 (Table S1) (SSNICNISCD; UniProt P00711 88-97, looked up, fragment)', '16%');

* * *

substances and their reported Percent inhibition of DPP-IV activity, SPOT-synthesized deca-peptides
- TARGET: dipeptidyl-peptidase IV (DPP-IV) (Homo sapiens, UniProt P27487)
- Construct: purchased Creative BioMart (Shirley, NY, USA); host or cells: HEK293 human cells
- Sequence (P27487 whole entry): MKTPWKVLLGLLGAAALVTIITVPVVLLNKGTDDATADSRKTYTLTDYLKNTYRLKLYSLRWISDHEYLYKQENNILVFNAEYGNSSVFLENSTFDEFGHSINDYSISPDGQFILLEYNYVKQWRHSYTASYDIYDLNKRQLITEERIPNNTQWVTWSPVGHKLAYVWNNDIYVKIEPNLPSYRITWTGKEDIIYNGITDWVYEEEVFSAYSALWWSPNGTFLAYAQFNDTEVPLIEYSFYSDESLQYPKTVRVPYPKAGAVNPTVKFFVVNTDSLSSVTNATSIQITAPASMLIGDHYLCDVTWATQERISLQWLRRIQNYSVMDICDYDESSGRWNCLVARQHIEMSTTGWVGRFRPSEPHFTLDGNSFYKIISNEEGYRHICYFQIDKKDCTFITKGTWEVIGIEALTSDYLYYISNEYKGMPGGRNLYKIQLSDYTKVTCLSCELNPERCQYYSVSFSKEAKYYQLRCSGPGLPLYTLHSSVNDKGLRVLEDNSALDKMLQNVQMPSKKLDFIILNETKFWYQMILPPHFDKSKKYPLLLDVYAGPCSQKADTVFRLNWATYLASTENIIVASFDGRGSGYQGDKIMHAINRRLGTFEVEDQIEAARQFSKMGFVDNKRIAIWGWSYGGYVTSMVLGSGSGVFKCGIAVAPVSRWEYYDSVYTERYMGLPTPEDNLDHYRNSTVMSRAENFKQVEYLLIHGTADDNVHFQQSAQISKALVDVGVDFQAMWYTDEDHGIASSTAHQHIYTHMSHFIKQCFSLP
- METHOD NOTES: DPP-IV inhibition assay on SPOT-synthesized peptides (cleaved from cellulose membrane)
- Type: biochemical
- SETUP CONDITIONS: peptides cleaved from cellulose membrane, concentration not known (semi-quantitative); averages of four determinations from two experiments
Ends that are not written are not given here.
MEASUREMENT TYPE: Percent inhibition of DPP-IV activity, SPOT-synthesized deca-peptides (%)

INSERT INTO results (substance, value) VALUES
  ('QNPHSSNICN [F10, QNPHSSNICN]', 8),
  ('DSTEYGLFQI [E2]', 14),
  ('KDDQNPHSSN [F7]', 16),
  ('NDSTEYGLFQ [E1]', 14),
  ('CSEKLDQWLC [K1]', 22),
  ('NNDSTEYGLF [D11, NNDSTEYGLF]', 11),
  ('G2: α-lactalbumin-derived deca-peptide, residues 68–77 (Table S1) (HSSNICNISC; UniProt P00711 87-96, looked up, fragment)', 9),
  ('H1: α-lactalbumin-derived deca-peptide, residues 78–87 (Table S1) (DKFLDDDLTD; UniProt P00711 97-106, looked up, fragment)', 19),
  ('CDKFLDDDLT [G11]', 22),
  ('KALCSEKLDQ [J9]', 24),
  ('D2: α-lactalbumin-derived deca-peptide, residues 35–44 (Table S1) (GYDTQAIVQN; UniProt P00711 54-63, looked up, fragment)', 9),
  ('I7: α-lactalbumin-derived deca-peptide, residues 95–104 (Table S1) (ILDKVGINYW; UniProt P00711 114-123, looked up, fragment)', 19),
  ('KKILDKVGIN [I5]', 17),
  ('CKDDQNPHSS [F6, CKDDQNPHSS]', 15),
  ('DTQAIVQNND [D4, DTQAIVQNND]', 14),
  ('SEKLDQWLCE [K2]', 19),
  ('IVTQTMKGLD [K5, reference compound]', 16),
  ('VKKILDKVGI [I4]', 18),
  ('GYGGVSLPEW [B6, GYGGVSLPEW]', 17),
  ('G1: α-lactalbumin-derived deca-peptide, residues 67–76 (Table S1) (PHSSNICNIS; UniProt P00711 86-95, looked up, fragment)', 11),
  ('H11: α-lactalbumin-derived deca-peptide, residues 88–97 (Table S1) (DIMCVKKILD; UniProt P00711 107-116, looked up, fragment)', 15),
  ('DQNPHSSNIC [F9]', 15),
  ('LKPTPEGDLE [K6, LKPTPEGDLE]', 23),
  ('I6: α-lactalbumin-derived deca-peptide, residues 94–103 (Table S1) (KILDKVGINY; UniProt P00711 113-122, looked up, fragment)', 20),
  ('YPSKPDNPGE [K11, YPSKPDNPGE, reference compound]', 31),
  ('B2: α-lactalbumin-derived deca-peptide, residues 13–22 (Table S1) (KDLKGYGGVS; UniProt P00711 32-41, looked up, fragment)', 11),
  ('I1: α-lactalbumin-derived deca-peptide, residues 89–98 (Table S1) (IMCVKKILDK; UniProt P00711 108-117, looked up, fragment)', 17),
  ('TSGYDTQAIV [C11, TSGYDTQAIV]', 14),
  ('C4: α-lactalbumin-derived deca-peptide, residues 26–35 (Table S1) (WVCTTFHTSG; UniProt P00711 45-54, looked up, fragment)', 26),
  ('D3: α-lactalbumin-derived deca-peptide, residues 36–45 (Table S1) (YDTQAIVENN; UniProt P00709 55-64, looked up, fragment)', 11),
  ('HSQGTFTSDY [K8, reference compound]', 15),
  ('STEYGLFQIN [E3]', 13),
  ('B7: α-lactalbumin-derived deca-peptide, residues 18–27 (Table S1) (YGGVSLPEWV; UniProt P00711 37-46, looked up, fragment)', 15),
  ('G5: α-lactalbumin-derived deca-peptide, residues 71–80 (Table S1) (NICNISCDKF; UniProt P00711 90-99, looked up, fragment)', 25),
  ('C6: α-lactalbumin-derived deca-peptide, residues 28–37 (Table S1) (CTTFHTSGYD; UniProt P00711 47-56, looked up, fragment)', 10);

* * *

- TARGET: dipeptidyl-peptidase IV (DPP-IV) (Homo sapiens)
- Construct: purchased Creative BioMart (Shirley, NY, USA); host or cells: HEK293 human cells
- METHOD NOTES: DPP-IV inhibition assay on SPOT-synthesized peptides (cleaved from cellulose membrane)
- Type: biochemical
- SETUP CONDITIONS: peptides cleaved from cellulose membrane, concentration not known (semi-quantitative); averages of four determinations from two experiments
Ends that are not written are not given here.
# label = 1 (yes) if Percent inhibition of DPP-IV activity, SPOT-synthesized deca-peptides >= 20% else 0 (no)

INSERT INTO results (substance, class_label) VALUES
  ('HAEGTFTSDY [K10, HAEGTFTSDY, reference compound]', '0 (no)'),
  ('WCKDDQNPHS [F5]', '1 (yes)'),
  ('IVQNNDSTEY [D8]', '0 (no)'),
  ('SLPEWVCTTF [B11]', '0 (no)'),
  ('ICNISCDKFL [G6]', '1 (yes)'),
  ('EQLTKCEVFR [A1, EQLTKCEVFR]', '0 (no)'),
  ('C2: α-lactalbumin-derived deca-peptide, residues 24–33 (Table S1) (PEWVCTTFHT; UniProt P00711 43-52, looked up, fragment)', '0 (no)'),
  ('FHTSGYDTQA [C9, FHTSGYDTQA]', '0 (no)'),
  ('ELKDLKGYGG [A11]', '0 (no)'),
  ('ALCSEKLDQW [J10]', '1 (yes)'),
  ('I3: α-lactalbumin-derived deca-peptide, residues 91–100 (Table S1) (CVKKILDKVG; UniProt P00711 110-119, looked up, fragment)', '1 (yes)'),
  ('LCSEKLDQWL [J11, LCSEKLDQWL]', '1 (yes)'),
  ('J2: α-lactalbumin-derived deca-peptide, residues 101–110 (Table S1) (IDYWLAHKAL; UniProt P00709 120-129, looked up, fragment)', '0 (no)'),
  ('G9: α-lactalbumin-derived deca-peptide, residues 75–84 (Table S1) (ISCDKFLDDD; UniProt P00711 94-103, looked up, fragment)', '0 (no)'),
  ('H6: α-lactalbumin-derived deca-peptide, residues 83–92 (Table S1) (DDLTDDIMCV; UniProt P00711 102-111, looked up, fragment)', '0 (no)'),
  ('YAEGTFISDY [K9, reference compound]', '1 (yes)'),
  ('LAHKALCSEK [J6, LAHKALCSEK]', '1 (yes)'),
  ('EYGLFQINNK [E5]', '0 (no)'),
  ('A6: α-lactalbumin-derived deca-peptide, residues 6–15 (Table S1) (CEVFRELKDL; UniProt P00711 25-34, looked up, fragment)', '0 (no)'),
  ('IWCKDDQNPH [F4]', '1 (yes)'),
  ('C8: α-lactalbumin-derived deca-peptide, residues 30–39 (Table S1) (TFHTSGYDTQ; UniProt P00711 49-58, looked up, fragment)', '0 (no)'),
  ('H5: α-lactalbumin-derived deca-peptide, residues 82–91 (Table S1) (DDDITDDIMC; UniProt P00709 101-110, looked up, fragment)', '0 (no)'),
  ('QNNDSTEYGL [D10, QNNDSTEYGL]', '0 (no)'),
  ('A5: α-lactalbumin-derived deca-peptide, residues 5–14 (Table S1) (KCEVFRELKD; UniProt P00711 24-33, looked up, fragment)', '0 (no)'),
  ('G4: α-lactalbumin-derived deca-peptide, residues 70–79 (Table S1) (SNICNISCDK; UniProt P00711 89-98, looked up, fragment)', '0 (no)'),
  ('YGLFQINNKI [E6]', '0 (no)'),
  ('H3: α-lactalbumin-derived deca-peptide, residues 80–89 (Table S1) (FLDDDLTDDI; UniProt P00711 99-108, looked up, fragment)', '0 (no)'),
  ('H7: α-lactalbumin-derived deca-peptide, residues 84–93 (Table S1) (DLTDDIMCVK; UniProt P00711 103-112, looked up, fragment)', '1 (yes)'),
  ('I10: α-lactalbumin-derived deca-peptide, residues 98–107 (Table S1) (KVGINYWLAH; UniProt P00711 117-126, looked up, fragment)', '1 (yes)'),
  ('KIWCKDDQNP [F3]', '0 (no)'),
  ('B9: α-lactalbumin-derived deca-peptide, residues 20–29 (Table S1) (GVSLPEWVCT; UniProt P00711 39-48, looked up, fragment)', '0 (no)'),
  ('J1: α-lactalbumin-derived deca-peptide, residues 100–109 (Table S1) (GIDYWLAHKA; UniProt P00709 119-128, looked up, fragment)', '1 (yes)');
